- System: HepG2 cells
- ASSAY_PROCEDURE: MTT anti-proliferative assay, HepG2
- Assay type: cell-based, human
- ASSAY_CONDITIONS: Homo sapiens, HepG2, 72 h, read-out: Anti-proliferative activity IC50, HepG2
pIC50: −log10 of the molar value.
PARAMETER: pIC50

{"SUBSTANCE_SMILES": "O=C(N/N=C/c1ncc(N2CCOCC2)s1)Nc1cc2c(Nc3ccc(F)c(Cl)c3)ncnc2cc1O[C@H]1CCOC1", "pIC50": 5.87}

(P) O=C(N/N=C/c1ccc(OCCCN2CCCCC2)cc1)Nc1cc2c(Nc3ccc(F)c(Cl)c3)ncnc2cc1O[C@H]1CCOC1
(Q) CN(C)Cc1ccc(/C=N/NC(=O)Nc2cc3c(Nc4ccc(F)c(Cl)c4)ncnc3cc2O[C@H]2CCOC2)cc1
Between P and Q , which one shows the larger pIC50 value? Refer to your chosen entry by its label in the reply.
P
(P: 5.64, Q: 5.42)

###

- Tested on: HepG2 cells
- ASSAY_PROCEDURE: MTT anti-proliferative assay, HepG2
- Format: cell-based, human
- ASSAY_CONDITIONS: Homo sapiens, HepG2, 72 h, read-out: Anti-proliferative activity IC50, HepG2
PARAMETER: IC50 (µM)

Guide cases for IC50, answers given:
{"COMPOUND": "CN(C)c1ccc(/C=N/NC(=O)Nc2cc3c(Nc4ccc(F)c(Cl)c4)ncnc3cc2O[C@H]2CCOC2)cc1 [Compound 10]", "IC50 / µM": 0.14}
{"COMPOUND": "O=C(N/N=C/c1ccc(N2CCCC2)nc1)Nc1cc2c(Nc3ccc(F)c(Cl)c3)ncnc2cc1O[C@H]1CCOC1 [Compound 18]", "IC50 / µM": 5.81}
{"COMPOUND": "CN1CCN(Cc2ccc(/C=N/NC(=O)Nc3cc4c(Nc5ccc(F)c(Cl)c5)ncnc4cc3O[C@H]3CCOC3)cc2)CC1 [Compound 30]", "IC50 / µM": 17.5}
{"COMPOUND": "COc1cc2ncnc(Nc3ccc(F)c(Cl)c3)c2cc1NC(=O)N/N=C/c1ccc(CN2CCCC2)cc1 [Compound 21]", "IC50 / µM": 21.3}
{"COMPOUND": "COc1cc2ncnc(Nc3ccc(F)c(Cl)c3)c2cc1NC(=O)N/N=C/c1ccc(CN(C)C)cc1 [Compound 19]", "IC50 / µM": 9.89}

(a) O=C(N/N=C/c1ccc(N2CCCC2)o1)Nc1cc2c(Nc3ccc(F)c(Cl)c3)ncnc2cc1O[C@H]1CCOC1 [Compound 15]
(b) O=C(N/N=C/c1cnc(N2CCCC2)nc1)Nc1cc2c(Nc3ccc(F)c(Cl)c3)ncnc2cc1O[C@H]1CCOC1 [Compound 14]
(c) CCN(CC)CCCOc1ccc(/C=N/NC(=O)Nc2cc3c(Nc4ccc(F)c(Cl)c4)ncnc3cc2O[C@H]2CCOC2)cc1 [Compound 50]
(d) O=C(N/N=C/c1ccc(CN2CCCCC2)cc1)Nc1cc2c(Nc3ccc(F)c(Cl)c3)ncnc2cc1O[C@H]1CCOC1 [Compound 28]
Rank entries according to their IC50, from the largest number down. Quick reminder: the answer is the labels in the order asked.
a, b, d, c
(a: 8.17 µM, b: 4.63 µM, d: 3.13 µM, c: 1.08 µM)

(1) CCN(CC)c1ccc(/C=N/NC(=O)Nc2cc3c(Nc4ccc(F)c(Cl)c4)ncnc3cc2OC)cc1 [Compound 11]
(2) CN1CCN(CCCOc2ccc(/C=N/NC(=O)Nc3cc4c(Nc5ccc(F)c(Cl)c5)ncnc4cc3O[C@H]3CCOC3)cc2)CC1 [Compound 54]
Please indicate which entry, 1 or 2 , has the lower recorded IC50 value. Output the label that corresponds to your choice.
1
(1: 11.5 µM, 2: 41.2 µM)

###

- Tested on: HepG2 cells
- ASSAY_PROCEDURE: MTT anti-proliferative assay, HepG2
- Assay type: cell-based, human
- ASSAY_CONDITIONS: Homo sapiens, HepG2, 72 h, read-out: Anti-proliferative activity IC50, HepG2
pIC50: −log10 of the molar value.
PARAMETER: pIC50

// known answers, use as guide
{"SUBSTANCE_SMILES": "COc1cc2ncnc(Nc3ccc(F)c(Cl)c3)c2cc1NC(=O)N/N=C/c1ccc(CN2CCCCC2)cc1", "pIC50": 4.23}
{"SUBSTANCE_SMILES": "CN(C)c1ccc(/C=N/NC(=O)Nc2cc3c(Nc4ccc(F)c(Cl)c4)ncnc3cc2O[C@H]2CCOC2)s1", "pIC50": 5.61}

(I) O=C(N/N=C/c1ccc(OCCCN2CCCC2)cc1)Nc1cc2c(Nc3ccc(F)c(Cl)c3)ncnc2cc1O[C@H]1CCOC1
(II) CCN(CC)Cc1ccc(/C=N/NC(=O)Nc2cc3c(Nc4ccc(F)c(Cl)c4)ncnc3cc2O[C@H]2CCOC2)cc1
Looking only at measured pIC50, which entry is lower, I or II ? Returns: label corresponding to the selected item.
II

###

- System: MCF-7 cells
- ASSAY_PROCEDURE: MTT anti-proliferative assay, MCF-7
- Assay type: cell-based, human
- ASSAY_CONDITIONS: read-out: Anti-proliferative activity IC50, MCF-7; MCF-7, MTT, 72 h
PARAMETER: IC50 (µM)

Consider the following illustrative entries.
{"MOLECULE": "COc1cc2ncnc(Nc3ccc(F)c(Cl)c3)c2cc1NC(=O)N/N=C/c1ccc(N2CCCC2)nc1 [Compound 17]", "MEASUREMENT_TARGET": "MCF-7 cells", "OUTPUT_UNIT": "µM", "IC50": 12.9}
{"MOLECULE": "O=C(N/N=C/c1ccc(OCCN2CCOCC2)cc1)Nc1cc2c(Nc3ccc(F)c(Cl)c3)ncnc2cc1O[C@H]1CCOC1 [Compound 41]", "MEASUREMENT_TARGET": "MCF-7 cells", "OUTPUT_UNIT": "µM", "IC50": 28.8}
{"MOLECULE": "CN(C)CCOc1ccc(/C=N/NC(=O)Nc2cc3c(Nc4ccc(F)c(Cl)c4)ncnc3cc2O[C@H]2CCOC2)cc1 [Compound 37]", "MEASUREMENT_TARGET": "MCF-7 cells", "OUTPUT_UNIT": "µM", "IC50": 11.7}
{"MOLECULE": "O=C(N/N=C/c1ccc(OCCN2CCCC2)cc1)Nc1cc2c(Nc3ccc(F)c(Cl)c3)ncnc2cc1O[C@H]1CCOC1 [Compound 39]", "MEASUREMENT_TARGET": "MCF-7 cells", "OUTPUT_UNIT": "µM", "IC50": 64.8}
{"MOLECULE": "COc1cc2ncnc(Nc3ccc(Cl)c(F)c3)c2cc1NC(=O)N/N=C/c1ccc(OCCN2CCOCC2)cc1 [Compound 35]", "MEASUREMENT_TARGET": "MCF-7 cells", "OUTPUT_UNIT": "µM", "IC50": 21.8}

(A) COc1cc2ncnc(Nc3ccc(F)c(Cl)c3)c2cc1NC(=O)N/N=C/c1ccc(OCCN2CCN(C)CC2)cc1 [Compound 36]
(B) COc1cc2ncnc(Nc3ccc(F)c(Cl)c3)c2cc1NC(=O)N/N=C/c1ccc(OCCCN2CCOCC2)cc1 [Compound 47]
Of A versus B , which is the one with smaller reported IC50? // return label of chosen record
A

###

- Test system: MCF-7 cells
- ASSAY_PROCEDURE: MTT anti-proliferative assay, MCF-7
- Format: cell-based, human
- ASSAY_CONDITIONS: read-out: Anti-proliferative activity IC50, MCF-7; MCF-7, MTT, 72 h
PARAMETER: IC50 (µM)

{"SUBSTANCE_SMILES": "CCN(CC)CCOc1ccc(/C=N/NC(=O)Nc2cc3c(Nc4ccc(F)c(Cl)c4)ncnc3cc2OC)cc1", "MEASUREMENT_TARGET": "MCF-7 cells", "PARAMETER": "IC50", "DATA_VALUE": 12.5}

(I) COc1cc2ncnc(Nc3ccc(F)c(Cl)c3)c2cc1NC(=O)N/N=C/c1ccc(OCCN(C)C)cc1
(II) COc1cc2ncnc(Nc3ccc(F)c(Cl)c3)c2cc1NC(=O)N/N=C/c1ccc(OCCCN2CCCCC2)cc1
(III) O=C(N/N=C/c1ccc(OCCN2CCCCC2)cc1)Nc1cc2c(Nc3ccc(F)c(Cl)c3)ncnc2cc1O[C@H]1CCOC1
List items by IC50 in falling order. Provide the labels, sequenced as the question asks.
I, III, II

###

- System: HepG2 cells
- ASSAY_PROCEDURE: MTT anti-proliferative assay, HepG2
- Format: cell-based, human
- ASSAY_CONDITIONS: Homo sapiens, HepG2, 72 h, read-out: Anti-proliferative activity IC50, HepG2
PARAMETER: IC50 (nM)

(a) CCN(CC)c1ccc(/C=N/NC(=O)Nc2cc3c(Nc4ccc(F)c(Cl)c4)ncnc3cc2O[C@H]2CCOC2)cc1
(b) COc1cc2ncnc(Nc3ccc(F)c(Cl)c3)c2cc1NC(=O)N/N=C/c1ccc(N(C)C)cc1
(c) COc1cc2ncnc(Nc3ccc(F)c(Cl)c3)c2cc1NC(=O)N/N=C/c1ccc(CN2CCN(C)CC2)cc1
(d) CCN(CC)Cc1ccc(/C=N/NC(=O)Nc2cc3c(Nc4ccc(F)c(Cl)c4)ncnc3cc2OC)cc1
Highest IC50 first, then in falling order down to the smallest. The reply should contain the labels ordered as requested.
d, c, b, a
(d: 9490 nM, c: 2860 nM, b: 720 nM, a: 310 nM)

Data provenance: paper PMC6282443
